Molecular target: APOL1 G1 Protein (Homo sapiens, UniProt O14791, I384M/S342G)
Sequence (O14791 28-398 S342G/I384M): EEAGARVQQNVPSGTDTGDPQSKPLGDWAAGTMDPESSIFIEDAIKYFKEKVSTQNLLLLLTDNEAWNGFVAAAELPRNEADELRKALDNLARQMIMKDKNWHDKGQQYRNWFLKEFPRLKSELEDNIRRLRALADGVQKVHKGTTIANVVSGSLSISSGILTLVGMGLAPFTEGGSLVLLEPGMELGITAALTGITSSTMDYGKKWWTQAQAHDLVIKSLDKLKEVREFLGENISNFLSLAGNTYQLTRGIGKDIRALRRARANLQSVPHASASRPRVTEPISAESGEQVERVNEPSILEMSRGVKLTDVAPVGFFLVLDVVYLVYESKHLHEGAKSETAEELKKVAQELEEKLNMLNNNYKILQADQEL
Assay: Trypanosoma brucei brucei Lysis Assay Using APOL1 Recombinant Protein (AlamarBlue viability)
Conditions: read-out: Trypanosomal Assay (IC50)
pIC50: −log10 of the molar value.
Reported values of pIC50 for individual entries

CC(=O)NCCCCc1c(-c2ccc(F)cc2)[nH]c2c(F)cc(F)cc12	6.00 to 6.60
O=C(CCc1c(-c2ccc(F)cc2)[nH]c2c(F)cc(F)cc12)Nc1ccon1	< 6.00
O=C(CCc1c(-c2ccc(F)cc2)[nH]c2ccc(F)cc12)NC1(CO)COC1	6.00 to 6.60
CN(CCNC(=O)OC(C)(C)C)C(=O)CCc1c(-c2ccc(F)cc2)[nH]c2ccc(F)cc12	< 6.00
O=C(CCc1c(-c2ccc(F)cc2)[nH]c2ccc(F)cc12)N[C@H]1C[C@H](O)C1	< 6.00
NCCCc1c(-c2ccc(F)cc2)[nH]c2c(F)cc(F)cc12	> 6.60

Suppose we examine the compound Cc1cnc(NC(=O)CCc2c(-c3ccc(F)cc3)[nH]c3c(F)cc(F)cc23)o1 ; what pIC50 value has been reported?
< 6.00

Suppose we examine the compound O=C(CCc1c(-c2ccc(F)cc2)[nH]c2ccc(F)cc12)NCC1COC1 ; what pIC50 value has been reported?
< 6.00

Suppose we examine the compound O=C(CCc1c(-c2ccc(F)cc2)[nH]c2c(F)cc(F)cc12)NC1(C(F)(F)F)CCC1 ; what pIC50 value has been reported?
< 6.00

----------
Target: APOL1 G1 Protein (Homo sapiens, UniProt O14791, I384M/S342G)
Assay: Trypanosoma brucei brucei Lysis Assay Using APOL1 Recombinant Protein (AlamarBlue viability)
Conditions: read-out: Trypanosomal Assay (IC50)
Reported values of IC50 for individual entries

Solved entries (count: 4):
C[C@H](CO)NC(=O)CCc1c(-c2ccc(F)cc2)[nH]c2ccc(F)cc12 [Compound 8]	< 250 nM
O=C(CCc1c(-c2ccc(F)cc2)[nH]c2c(F)cc(F)cc12)NCc1cocn1 [Compound 155]	> 1000 nM
CC(O)C(C)NC(=O)CCc1c(-c2ccc(F)cc2)[nH]c2ccc(F)cc12 (mixture of isomers) [Compound 35]	> 1000 nM
O=C(NCCCc1c(-c2ccc(F)cc2)[nH]c2ccc(F)cc12)C(F)F [Compound 506]	250 to 1000 nM

Give IC50 (APOL1 G1 Protein (Homo sapiens, UniProt O14791, I384M/S342G)) of the following molecule: NCC1CCCCN1C(=O)CCc1c(-c2ccc(F)cc2)[nH]c2ccc(F)cc12 (centres unmarked) [Compound 53]
> 1000 nM

Give IC50 (APOL1 G1 Protein (Homo sapiens, UniProt O14791, I384M/S342G)) of the following molecule: O=C(CCc1c(-c2ccc(F)cc2)[nH]c2c(F)cc(F)cc12)NC1(CO)CCC1 [Compound 91]
< 250 nM

Give IC50 (APOL1 G1 Protein (Homo sapiens, UniProt O14791, I384M/S342G)) of the following molecule: CC(C)(CO)NC(=O)CCc1c(-c2ccc(F)cc2)[nH]c2c(F)cc(F)cc12 [Compound 103]
250 to 1000 nM

Give IC50 (APOL1 G1 Protein (Homo sapiens, UniProt O14791, I384M/S342G)) of the following molecule: CN(CCO)C(=O)CCc1c(-c2ccc(F)cc2)[nH]c2c(F)cc(F)cc12 [Compound 143]
> 1000 nM
